- measurement target: Phospholipid hydroperoxide glutathione peroxidase GPX4 (Homo sapiens) (UniProt P36969)
- Sequence (P36969 whole entry, looked up): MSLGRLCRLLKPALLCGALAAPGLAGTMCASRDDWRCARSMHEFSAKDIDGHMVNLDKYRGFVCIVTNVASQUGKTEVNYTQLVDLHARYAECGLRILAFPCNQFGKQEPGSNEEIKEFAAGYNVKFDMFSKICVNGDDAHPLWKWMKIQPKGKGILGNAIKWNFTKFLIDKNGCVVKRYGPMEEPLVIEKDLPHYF
- experiment description: Primary qHTS Assay for Inhibitors of Recombinant Selenoprotein Glutathione Peroxidase 4 (GPX4) (AID 1845192); note: nearly all actives have a fitted effect of over 65% in size
- study conditions: recombinant GPX4, GR-coupled NADPH fluorescence, 15 min; series mostly up to 50 µM
Records with an inconclusive call do not appear. Calls of active or inactive are those of the source. Calls come from the whole dose curve; as a rule, active = well fitted inhibition curve with a large enough effect; inconclusive = small, poorly fitted or top-dose-only effect; inactive = flat fitted curve, though single readings scatter.
measured property: outcome

Worked set:
Ask | # return outcome of C=C1C(=O)OC2/C=C(/C)C3=CC(=O)C(C)(CC(OC(=O)/C(C)=C/COC(C)=O)C12)O3 (centres undefined) (system: Phospholipid hydroperoxide glutathione peroxidase GPX4 (Homo sapiens) (UniProt P36969))
Reply | inactive

Ask | # return outcome of Fc1ccc(N2CCCCC2)c(NC(=S)c2ccncc2)c1 (system: Phospholipid hydroperoxide glutathione peroxidase GPX4 (Homo sapiens) (UniProt P36969))
Reply | inactive

Ask | # return outcome of Nc1nc(Nc2ccc3c(c2)CCC(N2CCCC2)CC3)nn1-c1cc2c(nn1)-c1ccccc1CCC2 (centres undefined) (system: Phospholipid hydroperoxide glutathione peroxidase GPX4 (Homo sapiens) (UniProt P36969))
Reply | inactive

Ask | # return outcome of CN1CCN(C2=Nc3ccccc3Cc3ccccc32)CC1 (system: Phospholipid hydroperoxide glutathione peroxidase GPX4 (Homo sapiens) (UniProt P36969))
Reply | inactive

Ask | # return outcome of Fc1ccc(-n2cc(CCCCN3CCC4(CC3)OCc3ccccc34)c3ccccc32)cc1 (system: Phospholipid hydroperoxide glutathione peroxidase GPX4 (Homo sapiens) (UniProt P36969))
Reply | inactive

Provide outcome values for the following items, in order.
1. c1ccc(-c2cnn3cc(-c4ccc(OCCN5CCOCC5)cc4)cnc23)cc1
2. Nc1nccc(-c2c(-c3ccc(F)cc3)ncn2C2CCCCC2)n1
3. CC(=O)O[C@@H]1CC[C@@]2(C)[C@H](CC[C@@H]3[C@@H]2C[C@H](OC(C)=O)[C@]2(C)[C@@H](C(C)=O)CC[C@@H]32)C1
4. COc1cc(N(C)CCN(C)C)c(N)cc1Nc1nccc(-c2cn(C)c3ccccc23)n1

Reply |
inactive
inactive
inactive
inactive
